assay: Pharmacokinetic profiles by cassette dosing in dog (IV and PO); assay type: in vivo; conditions: dog, in vivo, male beagle dogs, 1 mg/kg, intravenous dose, read-out: AUC (IV)
experimental.endpoint: AUC
Write the figure, then the unit, nothing else.

Endpoint output: AUC of CC[C@H]1OC(=O)[C@H](C)C(=O)[C@H](C)[C@@H](O[C@@H]2O[C@H](C)C[C@H](N(C)C)[C@H]2O)C(C)(OCC#Cc2ccc(-c3nnn(C)n3)s2)C[C@@H](C)C(=O)[C@H](C)[C@H]2NC(=O)O[C@@]21C (stereo in doubt) . Value? 11900 ng·h/mL

###

assay: Pharmacokinetic profiles by cassette dosing in dog (IV and PO); format: in vivo; details: dog, in vivo, male beagle dogs, 1 mg/kg, oral dose
experimental.endpoint: Tmax

Endpoint output: Tmax of CC[C@H]1OC(=O)[C@H](C)C(=O)[C@H](C)[C@@H](O[C@@H]2O[C@H](C)C[C@H](N(C)C)[C@H]2O)C(C)(OCC#Cc2ccc(-c3nnn(C)n3)s2)C[C@@H](C)C(=O)[C@H](C)[C@H]2NC(=O)O[C@@]21C (stereo in doubt) [7B] . Value? 1.3 h

###

Item-by-item account of bioavailability
experiment: Pharmacokinetic profiles by cassette dosing in dog (IV and PO); type: in vivo; settings: dog, plasma, male beagle dogs, 1 mg/kg, oral dose, read-out: F (PO), percent bioavailability
The reply should contain only the number, in %.

Endpoint output: bioavailability of CC[C@H]1OC(=O)[C@@](C)(F)C(=O)[C@H](C)[C@@H](O[C@@H]2O[C@H](C)C[C@H](N(C)C)[C@H]2O)[C@@](C)(OCC#Cc2ccc(-c3nnn(C)n3)s2)C[C@@H](C)C(=O)[C@H](C)[C@H]2NC(=O)O[C@@]21C [3B] . Value? 73.6

Could you do the same for CC[C@H]1OC(=O)[C@H](C)C(=O)[C@H](C)[C@@H](O[C@@H]2O[C@H](C)C[C@H](N(C)C)[C@H]2O)[C@@](C)(OC/C=C/c2ccc(-c3nnn(C)n3)s2)C[C@@H](C)C(=O)[C@H](C)[C@H]2NC(=O)O[C@@]21C [4B] , please? 63

Could you do the same for CC[C@H]1OC(=O)[C@@](C)(F)C(=O)[C@H](C)[C@@H](O[C@@H]2O[C@H](C)C[C@H](N(C)C)[C@H]2O)[C@@](C)(OC/C=C/c2ccc(-c3nnn(C)n3)s2)C[C@@H](C)C(=O)[C@H](C)[C@H]2NC(=O)O[C@@]21C [8B] , please? 81.1

###

assay: Pharmacokinetic profiles by cassette dosing in dog (IV and PO); assay type: in vivo; conditions: male beagle dogs, 1 mg/kg, intravenous dose
experimental.endpoint: Vβ (IV), terminal phase distribution volume
Number, no unit, nothing else.

Endpoint output: Vβ (IV), terminal phase distribution volume of `CC[C@H]1OC(=O)[C@@](C)(F)C(=O)[C@H](C)[C@@H](O[C@@H]2O[C@H](C)C[C@H](N(C)C)[C@H]2O)[C@@](C)(OCC#Cc2ccc(-c3nnn(C)n3)s2)C[C@@H](C)C(=O)[C@H](C)[C@H]2NC(=O)O[C@@]21C` . Value? 3.1

Could you do the same for CC[C@H]1OC(=O)[C@H](C)C(=O)[C@H](C)[C@@H](O[C@@H]2O[C@H](C)C[C@H](N(C)C)[C@H]2O)C(C)(OCC#Cc2ccc(-c3nnn(C)n3)s2)C[C@@H](C)C(=O)[C@H](C)[C@H]2NC(=O)O[C@@]21C (stereo in doubt) , please? 1.2

Could you do the same for `CC[C@H]1OC(=O)[C@H](C)C(=O)[C@H](C)[C@@H](O[C@@H]2O[C@H](C)C[C@H](N(C)C)[C@H]2O)[C@@](C)(OC/C=C/c2ccc(-c3nnn(C)n3)s2)C[C@@H](C)C(=O)[C@H](C)[C@H]2NC(=O)O[C@@]21C` , please? 1.1

Could you do the same for `CC[C@H]1OC(=O)[C@@](C)(F)C(=O)[C@H](C)[C@@H](O[C@@H]2O[C@H](C)C[C@H](N(C)C)[C@H]2O)[C@@](C)(OC/C=C/c2ccc(-c3nnn(C)n3)s2)C[C@@H](C)C(=O)[C@H](C)[C@H]2NC(=O)O[C@@]21C` , please? 2.3

###

experiment: Pharmacokinetic profiles by cassette dosing in dog (IV and PO); type: in vivo; conditions: male beagle dogs, 1 mg/kg, intravenous dose
experimental.endpoint: Vc (IV), volume of the central compartment
Number, no unit, nothing else.

molecule	result.value
CC[C@H]1OC(=O)[C@@](C)(F)C(=O)[C@H](C)[C@@H](O[C@@H]2O[C@H](C)C[C@H](N(C)C)[C@H]2O)[C@@](C)(OCC#Cc2ccc(-c3nnn(C)n3)s2)C[C@@H](C)C(=O)[C@H](C)[C@H]2NC(=O)O[C@@]21C [3B]	1.6

Endpoint output: Vc (IV), volume of the central compartment of CC[C@H]1OC(=O)[C@@](C)(F)C(=O)[C@H](C)[C@@H](O[C@@H]2O[C@H](C)C[C@H](N(C)C)[C@H]2O)[C@@](C)(OC/C=C/c2ccc(-c3nnn(C)n3)s2)C[C@@H](C)C(=O)[C@H](C)[C@H]2NC(=O)O[C@@]21C [8B] . Value? 1.1

Could you do the same for CC[C@H]1OC(=O)[C@H](C)C(=O)[C@H](C)[C@@H](O[C@@H]2O[C@H](C)C[C@H](N(C)C)[C@H]2O)C(C)(OCC#Cc2ccc(-c3nnn(C)n3)s2)C[C@@H](C)C(=O)[C@H](C)[C@H]2NC(=O)O[C@@]21C (stereo in doubt) [7B] , please? 0.9

Could you do the same for CC[C@H]1OC(=O)[C@H](C)C(=O)[C@H](C)[C@@H](O[C@@H]2O[C@H](C)C[C@H](N(C)C)[C@H]2O)[C@@](C)(OC/C=C/c2ccc(-c3nnn(C)n3)s2)C[C@@H](C)C(=O)[C@H](C)[C@H]2NC(=O)O[C@@]21C [4B] , please? 0.9

###

test: Pharmacokinetic profiles by cassette dosing in dog (IV and PO); assay type: in vivo; settings: dog, in vivo, male beagle dogs, 1 mg/kg, oral dose, read-out: F (PO), percent bioavailability
experimental.endpoint: bioavailability (%)
The reply should contain only the number, in %.

Endpoint output: bioavailability of CC[C@H]1OC(=O)[C@H](C)C(=O)[C@H](C)[C@@H](O[C@@H]2O[C@H](C)C[C@H](N(C)C)[C@H]2O)C(C)(OCC#Cc2ccc(-c3nnn(C)n3)s2)C[C@@H](C)C(=O)[C@H](C)[C@H]2NC(=O)O[C@@]21C (stereo in doubt) . Value? 80.3

###

assay: Pharmacokinetic profiles by cassette dosing in dog (IV and PO); assay type: in vivo; details: dog, in vivo, male beagle dogs, 1 mg/kg, oral dose, read-out: T½ (PO) (converted)
experimental.endpoint: half-life
Write the figure, then the unit, nothing else.

Endpoint output: half-life of CC[C@H]1OC(=O)[C@H](C)C(=O)[C@H](C)[C@@H](O[C@@H]2O[C@H](C)C[C@H](N(C)C)[C@H]2O)C(C)(OCC#Cc2ccc(-c3nnn(C)n3)s2)C[C@@H](C)C(=O)[C@H](C)[C@H]2NC(=O)O[C@@]21C (stereo in doubt) . Value? 6.7 h

###

Assay: Pharmacokinetic profiles by cassette dosing in dog (IV and PO)
Format: in vivo
Details: dog, in vivo, male beagle dogs, 1 mg/kg, oral dose, read-out: AUC (PO)
Protocol: The pharmacokinetic profiles of EXAMPLE 20, EXAMPLE 22, EXAMPLE 29 and EXAMPLE 31 were evaluated using cassette dosing protocols in dog. The cassette dosing protocol in dogs combined three test compounds with the reference compound (EXAMPLE 104 of commonly-owned U.S. Pat. No. 5,866,549), each at a dose of 1 mg/kg. […] The plasma concentrations of the test compound and reference compounds were simultaneously determined using HPLC-MS/MS following liquid-liquid extraction of the samples. […]
experimental.endpoint: AUC (ng·h/mL)
The reply should contain only the number, in ng·h/mL.

Endpoint output: AUC of CC[C@H]1OC(=O)[C@H](C)C(=O)[C@H](C)[C@@H](O[C@@H]2O[C@H](C)C[C@H](N(C)C)[C@H]2O)C(C)(OCC#Cc2ccc(-c3nnn(C)n3)s2)C[C@@H](C)C(=O)[C@H](C)[C@H]2NC(=O)O[C@@]21C (stereo in doubt) . Value? 9660

From: patent US20030207820A1
